Assay: Half life in Sprague-Dawley rat at 1.2 mg/kg,IG measured upto 24 hrs by LC-MS/MS analysis
Type: ADME, organism-based
Conditions: in vivo, po
VALUE KIND: half-life (h)

1: CC(C)C[C@H](NC(=O)C(CC1CC1)NC(=O)c1cc(C(F)(F)F)ccc1C(F)(F)F)B1OC2C3OC(CC3C(=O)O)C2(C)O1 (some centres not stated)
2: CC(C)C[C@H](NC(=O)C(NC(=O)c1cc(C(F)(F)F)ccc1C(F)(F)F)C1CC1)B1OC2C3OC(CC3C(=O)O)C2(C)O1 (some centres not stated)
I'd appreciate it if you could identify which of 1 and 2 has the greater half-life. Identify your pick by its label.
1
(1: 30 h, 2: 12 h)
